Test: qHTS for Inhibitors of human tyrosyl-DNA phosphodiesterase 1 (TDP1): qHTS in cells in presence of CPT; note: nearly all actives have a fitted effect of over 55% in size
Settings: chicken DT40 Tdp1-/-;hTDP1 cells + 20 nM CPT, ATP luminescence, 48 h; series mostly up to 46.2 µM
About 50,000 (12%) of roughly 420,000 compounds were called active. About 26% were inconclusive and are not listed. Calls come from the whole dose curve; as a rule, active = well fitted inhibition curve with a large enough effect; inconclusive = small, poorly fitted or top-dose-only effect; inactive = flat fitted curve, though single readings scatter. The entries come from a sample that favours actives as a whole.
Valid outcomes are listed here; reply with one: active, inactive

Hi, do you know how CNN/C(N=Cc1ccc([N+](=O)[O-])s1)=N\S(=O)(=O)c1cc(C)c(Cl)cc1SCc1ccccc1 came out in this test?
active

Hi, do you know how Cc1nc2cc(C(F)(F)F)ccc2n1CCNc1nc(-c2cc(Cl)c(N)c(Cl)c2)cs1 came out in this test?
active

Hi, do you know how COc1ccc(NS(=O)(=O)c2ccc(Oc3c(C#N)cccc3C#N)cc2)cc1 came out in this test?
active

Hi, do you know how CCOc1cc(C(=O)Nc2ccc(S(=O)(=O)Nc3cnc4ccccc4n3)cc2)cc(OCC)c1OCC came out in this test?
inactive

Hi, do you know how CC1(C)CC(=O)C=C(c2cccc3c2Oc2ccccc2S3)C1 came out in this test?
inactive

Hi, do you know how CN1CCC[C@@H]1CCO[C@](C)(c1ccccc1)c1ccc(Cl)cc1 came out in this test?
active

Hi, do you know how COc1ccc(-c2cc(C)nc3nc(N)nn23)cc1 came out in this test?
inactive

Hi, do you know how O=C(O)Cn1c(Cc2ccccc2)nc2ccccc21 came out in this test?
inactive

Hi, do you know how COc1ccc2[nH]c(C(=O)N3CCN(C)CC3)c(C)c2c1 came out in this test?
inactive

Hi, do you know how COc1ccc(C(=O)n2nc(-c3ccc(C)cc3)nc2N)cc1OC came out in this test?
active

Hi, do you know how Cn1ncc([N+](=O)[O-])c1C(=O)Nc1cc(Cl)ccc1Cl came out in this test?
inactive
